IC50 values for the compounds below.
# Tested on: HT-29 colon adenocarcinoma cells
# Assay Summary: Antiproliferative activity (NCI procedure, sulforhodamine B), HT-29
# Type: cell-based, human
# Measurement Context: Homo sapiens, HT-29; Table 7; unit inferred, tested 781 nM to 100 μM, 48 h

Chemical Structure: O=c1c(NCC2CCC2)c(Nc2ccc(C3CCCCC3)cc2)c1=O
Measurement Target: HT-29 colon adenocarcinoma cells
Assay Result: > 100 µM

Chemical Structure: CC(C)(C)c1ccc(Nc2c(NCC3CCC3)c(=O)c2=O)cc1
Measurement Target: HT-29 colon adenocarcinoma cells
Assay Result: > 100 µM

Chemical Structure: O=c1c(Nc2cccc(I)c2)c(NC2CC2)c1=O
Measurement Target: HT-29 colon adenocarcinoma cells
Assay Result: 39.8 µM

[in] Name the recorded IC50 for CC(C)(C)c1ccc(Nc2c(NC3CC3)c(=O)c2=O)cc1 .
[out] 18.7 µM

[in] Further, for O=c1c(Nc2ccc(I)cc2)c(NC2CCCC2)c1=O ?
[out] 10 µM

[in] Further, for CC(C)(C)c1cccc(Nc2c(NC3CC3)c(=O)c2=O)c1 ?
[out] 64.1 µM

[in] Further, for O=c1c(Nc2cccc(C3CCCCC3)c2)c(NC2CC2)c1=O ?
[out] 7.9 µM

[in] Further, for O=c1c(NCC2CCC2)c(Nc2cccc(I)c2)c1=O ?
[out] 15 µM

[in] Further, for CC(C)(C)c1cccc(Nc2c(NC3CCCC3)c(=O)c2=O)c1 ?
[out] 4.3 µM

[in] Further, for O=c1c(Nc2cccc(I)c2)c(NC2CCCC2)c1=O ?
[out] 15.2 µM

---

Metric Name: melting point

Consider the worked cases shown below.
Chemical Structure: CC(C)(C)c1cccc(NC(=S)NC2CCCC2)c1
melting point: 170 to 180 °C

Chemical Structure: CC(C)(C)CNC(=O)Nc1cccc(I)c1
melting point: 114 to 115 °C

Chemical Structure: CCCNC(=O)Nc1ccc(I)cc1
melting point: 197 to 199 °C

[in] Name the recorded melting point for O=C(NCC1CCC1)Nc1ccc(C2CCCCC2)cc1 .
[out] 172 to 173 °C

[in] Further, for CC(C)(C)c1ccc(NC(=O)NC2CC2)cc1 ?
[out] 138 to 139 °C

[in] Further, for COCCNC(=O)Nc1ccc(C(C)(C)C)cc1 ?
[out] 122 to 124 °C

[in] Further, for CCC(CC)NC(=O)Nc1ccc(I)cc1 ?
[out] 174 to 176 °C

[in] Further, for S=C(Nc1cccc(C2CCCCC2)c1)NC1CC1 ?
[out] 122 to 128 °C

[in] Further, for O=C(Nc1cccc(I)c1)NC1CCCC1 ?
[out] 142 to 143 °C

---

# System: A549 adenocarcinoma alveolar epithelial cancer cells
# Assay Summary: Antiproliferative activity (NCI procedure, sulforhodamine B), A549
# Format: cell-based, human
# Measurement Context: Homo sapiens, A549; Table 8; unit inferred, tested 781 nM to 100 μM, 48 h
IC50 values for the compounds below.
Respond with the bare value in µM.

Consider the worked cases shown below.
Chemical Structure: CC(C)(C)c1cccc(NC(=S)NCC2CCC2)c1
U: µM
IC50: 17.5
--
Chemical Structure: CC(C)(C)c1ccc(NC(=S)NC2CC2)cc1
U: µM
IC50: 57.9
--
Chemical Structure: S=C(Nc1ccc(I)cc1)NC1CC1
U: µM
IC50: 65.1

[in] Name the recorded IC50 for S=C(NCC1CCC1)Nc1cccc(I)c1 .
[out] 26.2

[in] Further, for S=C(Nc1ccc(C2CCCCC2)cc1)NC1CC1 ?
[out] 20.8
